Biological target: Wild type TGMV AL1 fused to the Gal4 DNA binding domain (pNSB736) (tomato golden mosaic virus (TGMV))
READOUT: oligomer. (oligomerization activity relative to wild type)

BINDER: AL1 AAA136 (Leu) fused to the Gal4 activation domain (pNSB785) (other) MPSHPKRFQINAKNYFLTYPQCSLSKEESLSQLQALNTPINKKFIKICRELHEDGQPHLHVLIQFEGKYCCQNQRFFDLVSPTRSAHFHPNIQRAKSSSDVKTYIDKDGDTLVWGEFQVDGRSARGGCQTSNDLLLEALNASSKEEALQIIREKIPEKYLFQFHNLNSNLDRIFDKTPEPWLPPFHVSSFTNVPDEMRQWAENYFGKSSAARPERPISIIIEGDSRTGKTMWARSLGPHNYLSGHLDLNSRVYSNKVEYNVIDDVTPQYLKLKHWKELIGAQRDWQTNCKYGKPVQIKGGIPSIVLCNPGEGASYKVFLDKEENTPLKNWTFHNAKFVFLNSPLYQSSTQSS
DATA_VALUE: 30 relative to wild type (100)

Pending binder:
Prompt: Any idea what its oligomer. (oligomerization activity relative to wild type) is? The binder is AL1 RS-R125 (Ala1) fused to the Gal4 activation domain (pNSB786) (other) MPSHPKRFQINAKNYFLTYPQCSLSKEESLSQLQALNTPINKKFIKICRELHEDGQPHLHVLIQFEGKYCCQNQRFFDLVSPTRSAHFHPNIQRAKSSSDVKTYIDKDGDTLVWGEFQVDGAAAAGGCQTSNDAAAEALNASSKEEALQIIREKIPEKYLFQFHNLNSNLDRIFDKTPEPWLPPFHVSSFTNVPDEMRQWAENYFGKSSAARPERPISIIIEGDSRTGKTMWARSLGPHNYLSGHLDLNSRVYSNKVEYNVIDDVTPQYLKLKHWKELIGAQRDWQTNCKYGKPVQIKGGIPSIVLCNPGEGASYKVFLDKEENTPLKNWTFHNAKFVFLNSPLYQSSTQSS
Response: 27 relative to wild type (100)
